Measured pKd, listed per entry for reference.
- tested on: T1, soluble heterodimeric hCD3ε/δ.mFc protein (human)
- T1 construct: also called soluble human CD3; soluble heterodimeric CD3 protein
- T1 chain 1: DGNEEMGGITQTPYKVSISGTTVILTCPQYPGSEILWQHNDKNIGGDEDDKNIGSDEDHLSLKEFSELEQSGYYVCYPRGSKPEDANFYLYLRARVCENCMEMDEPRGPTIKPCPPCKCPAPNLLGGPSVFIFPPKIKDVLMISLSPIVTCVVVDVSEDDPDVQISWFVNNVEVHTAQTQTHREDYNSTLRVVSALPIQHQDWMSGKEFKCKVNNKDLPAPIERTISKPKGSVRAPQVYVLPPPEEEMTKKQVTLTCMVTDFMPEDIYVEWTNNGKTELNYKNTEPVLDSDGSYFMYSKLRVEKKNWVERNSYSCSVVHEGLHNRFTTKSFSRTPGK
- T1 chain 2: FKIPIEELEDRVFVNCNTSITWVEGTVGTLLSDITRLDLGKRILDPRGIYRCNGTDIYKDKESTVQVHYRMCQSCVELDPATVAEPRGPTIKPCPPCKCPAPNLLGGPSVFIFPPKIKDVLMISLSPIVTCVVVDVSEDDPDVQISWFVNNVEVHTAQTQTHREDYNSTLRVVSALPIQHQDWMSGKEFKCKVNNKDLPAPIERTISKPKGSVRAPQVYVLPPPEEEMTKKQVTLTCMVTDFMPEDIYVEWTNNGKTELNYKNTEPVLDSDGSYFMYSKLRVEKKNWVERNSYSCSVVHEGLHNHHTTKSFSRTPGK
- protocol description: SPR MASS-1, 37 C, antigen-capture (hCD3ε/δ.mFc captured), antibody injected
The read-out pKd is expressed as -log10 of concentration in moles per litre.

binder: BSPSMA/CD3-800 (bispecific antibody, IgG4, V domains shown, modified (chimeric) IgG4 Fc domain; also called PSMA-VH-11810 x CD3-VH-G8) VH 1: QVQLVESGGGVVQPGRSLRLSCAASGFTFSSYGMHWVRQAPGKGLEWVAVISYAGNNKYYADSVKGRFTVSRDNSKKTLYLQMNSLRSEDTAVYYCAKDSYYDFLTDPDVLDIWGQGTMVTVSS VH 2: EVQLVESGGGLVQPGRSLRLSCAASGFTFDDYSMHWVRQAPGKGLEWVSGISWNSGSIGYADSVKGRFTISRDNAKNSLYLQMNSLRAEDTALYYCAKYGSGYGKFYHYGLDVWGQGTTVTVSS VL: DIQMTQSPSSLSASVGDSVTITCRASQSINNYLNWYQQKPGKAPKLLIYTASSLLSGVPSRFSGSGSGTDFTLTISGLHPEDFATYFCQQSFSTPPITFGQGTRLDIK
pKd: 7.71

Now for another entry.
Please look up its pKd: BSPSMA/CD3-1500 (bispecific antibody, IgG4, V domains shown, modified (chimeric) IgG4 Fc domain; also called PSMA-VH-11810 x CD3-VH-G15) VH 1: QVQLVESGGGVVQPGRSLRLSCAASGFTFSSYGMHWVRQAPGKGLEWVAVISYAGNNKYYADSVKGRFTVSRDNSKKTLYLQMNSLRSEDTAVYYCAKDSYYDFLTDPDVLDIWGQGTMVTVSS VH 2: EVQLVESGGGLVQPGRSLRLSCAASGFTFDDYSMHWVRQAPGKGLEWVSGISWNSGSKGYADSVKGRFTISRDNAKNSLYLQMNSLRAEDTALYYCAKDGSGYGKFYYYGLDVWGQGTTVTVSS VL: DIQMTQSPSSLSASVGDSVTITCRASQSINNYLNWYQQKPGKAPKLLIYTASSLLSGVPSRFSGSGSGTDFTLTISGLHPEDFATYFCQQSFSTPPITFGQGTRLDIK
7.08
